pIC50: −log10 of the molar value.
Below are pIC50 measurements against UniProt P34913 drawn from the literature.
Give Fulfilled when the value for pIC50 is at least 7. Give Not fulfilled when it is less.

>>> category("O=C(NCCCc1ccccc1)N1CC2(CCN2S(=O)(=O)c2ccccc2C(F)(F)F)C1")
"Not fulfilled"
>>> category("CS(=O)(=O)c1ccc(-n2nc(CNC(=O)NC34CC5CC(CC(C5)C3)C4)cc2-c2ccccc2)cc1")
"Fulfilled"
>>> category("CC(C)(C)c1cc(CNC(=O)Nc2cccc(C(F)(F)F)c2)nn1-c1ccc(S(C)(=O)=O)cc1")
"Fulfilled"
>>> category("Fc1cc2nc(-c3ccc(-c4nnn[nH]4)cc3)[nH]c2cc1F")
"Not fulfilled"
>>> category("O=C(NCCCc1ccccc1)N1CC2(CCN2S(=O)(=O)c2ccc(Cl)cc2)C1")
"Not fulfilled"

API: the following record is the query input.
Check this compound for pIC50 at or above 7: `O=C(NCc1ccc(Cl)cc1Cl)N1CC2(C1)CN(C(=O)c1ccccc1)C2`
Not fulfilled
